Tested on: OVCAR-5
Test: NCI one-dose SRB anti-proliferative screen
Assay type: cell-based
Conditions: Homo sapiens; OVCAR-5, Ovarian Cancer; NCI one dose; read-out: Cell growth inhibition %
Description: The twenty-four synthesized compounds were submitted to the National Cancer Institute (NCI), USA. Eighteen hybrids 7a-h, 7k-r, 7u, and 7v were selected by NCI for one-dose assessment of their anti-proliferative activities at 10 µM dose by Sulforhodamine B colorimetric assay. The assessment was performed in 60 cell lines derived from nine tumor subpanels, comprising lung, leukemia, melanoma, colon, renal, CNS, prostate, breast, and ovarian cancer cell lines. […]

| Input smiles | inhibition at 10 µM / % |
| --- | --- |
| COc1ccc(/C=C/C(=O)c2ccc(NC(=O)CSc3nnc(-c4ccc5[nH]c(-c6ccc(OC)cc6)nc5c4)o3)cc2)cc1 | 0 |
| COc1ccc(-c2nc3cc(-c4nnc(SCC(=O)Nc5ccc(C(=O)/C=C/c6ccc(Cl)cc6)cc5)o4)ccc3[nH]2)cc1 | 0.55 |
| O=C(CSc1nnc(-c2ccc3[nH]c(-c4ccccc4)nc3c2)o1)Nc1ccc(C(=O)/C=C/c2ccc(Cl)cc2)cc1 | 0 |
